Assay: Stability of cannabinoid and Vitamin E components of Beverage 2 (AB Red) stored at 8° C. and 21-25° C., LCMSMS over 570 days
Conditions: 8° C., 210 days
Exam item: assign condition met to entries whose Stability of Cannabinoids in AB Red is below 3 µg/mL and condition not met to entries at or above 3 µg/mL. Note that a value of exactly 3 µg/mL receives condition not met.

> print(dat)
                                   compound            cat
1  C=C(C)[C@@H]1CCC(C)=C[C@H]1c1c(O)cc(CCCCC)c(C(=O)O)c1O  condition met

**Query** Hi there! Is Stability of Cannabinoids in AB Red for CCCc1cc(O)c2c(c1)OC(C)(C)[C@@H]1CCC(C)=C[C@@H]21 [THCV, delta-9-tetrahydrocannabivarin] below 3 µg/mL, do you know?
**Result** condition not met

**Query** Hello, I'm reviewing records and need to know if Stability of Cannabinoids in AB Red of C=C(C)[C@@H]1CCC(C)=C[C@H]1c1c(O)cc(CCC)cc1O is below 3 µg/mL. Could you check?
**Result** condition met

**Query** Would you kindly verify if Stability of Cannabinoids in AB Red of CCCCCc1cc2c(c(O)c1C(=O)O)[C@@H]1C=C(C)CC[C@H]1C(C)(C)O2 [D9 THCA, delta-9-tetrahydrocannabinolic acid] is strictly less than 3 µg/mL?
**Result** condition met

**Query** Please check: Stability of Cannabinoids in AB Red for CCCCCc1cc(O)c2c(c1)OC(C)(C)c1ccc(C)cc1-2 , strictly under 3 µg/mL or not?
**Result** condition met

**Query** Lab note: confirm whether the reported Stability of Cannabinoids in AB Red for this compound is below 3 µg/mL, equality not counting. compound: CCCCCc1cc(O)c2c(c1)OC1(C)CCC3C1C2C3(C)C (stereo not drawn)
**Result** condition met

**Query** Say whether its Stability of Cannabinoids in AB Red is strictly beneath 3 µg/mL. Entry: CCCCCc1cc(O)c2c(c1)OC(C)(CCC=C(C)C)C=C2 (stereo not drawn)
**Result** condition met

**Query** # strict comparison: is reported Stability of Cannabinoids in AB Red < 3 µg/mL? input = CCCCCc1cc(O)c2c(c1)OC(C)(C)[C@@H]1CCC(C)=C[C@@H]21 [D9 THC, delta-9-tetrahydrocannabinol, reference compound]
**Result** condition not met

**Query** Check if Stability of Cannabinoids in AB Red falls below 3 µg/mL for CCCCCc1cc(O)c(C/C=C(\C)CCC=C(C)C)c(O)c1 .
**Result** condition not met

* * *

Type: physicochemical
Conditions: stored at room temperature (21-25° C.), day 19
Description: At each time period, 0.05 g of powder was dissolved in 10 ml-15 of ethanol, diluted to fall within the analytical range, and injected into the LCMSMS for analysis.
measured-attribute: Stability in Powder Concentrate (content by LCMSMS) (mg/g powder)
Give bare numbers, in mg/g powder.

Recorded Stability in Powder Concentrate (content by LCMSMS), per entry:
> print(dat)
                                   compound  endpoint.value
1  Cc1c(C)c2c(c(C)c1O)CC[C@@](C)(CCC[C@H](C)CCC[C@H](C)CCCC(C)C)O2 [α-Tocopherol]            5.04
2  C=C(C)[C@@H]1CCC(C)=C[C@H]1c1c(O)cc(CCCCC)cc1O [CBD, cannabidiol, reference compound]            5.74
3  CCCCCc1cc(O)c2c(c1)OC(C)(C)c1ccc(C)cc1-2 [CBN, cannabinol]           0.490

# return Stability in Powder Concentrate (content by LCMSMS) for each item in the list
1. Cc1c(C)c2c(c(C)c1OC(=O)CCC(=O)O)CC[C@@](C)(CCC[C@H](C)CCC[C@H](C)CCCC(C)C)O2 [α-Tocopheryl succinate]
2. C=C(C)[C@@H]1CCC(C)=C[C@H]1c1c(O)cc(CCCCC)c(C(=O)O)c1O [CBDA, cannabidiolic acid]
3. CCCCCc1cc(O)c2c(c1)OC1(C)CCC3C1C2C3(C)C (stereo not shown) [CBL, cannabicyclol]
4. CCCCCc1cc(O)c2c(c1)OC(C)(C)[C@@H]1CCC(C)=C[C@@H]21 [D9 THC, delta-9-tetrahydrocannabinol, reference compound]
5. CCCCCc1cc(O)c(C/C=C(\C)CCC=C(C)C)c(O)c1 [CBG, cannabigerol]
6. C=C(C)[C@@H]1CCC(C)=C[C@H]1c1c(O)cc(CCC)cc1O [CBDV, cannabidivarin]
7. CC(=O)Oc1c(C)c(C)c2c(c1C)CCC(C)(CCC[C@H](C)CCC[C@H](C)CCCC(C)C)O2 (stereo partly drawn) [α-Tocopheryl acetate]
8. CCCCCc1cc2c(c(O)c1C(=O)O)[C@@H]1C=C(C)CC[C@H]1C(C)(C)O2 [D9 THCA, delta-9-tetrahydrocannabinolic acid]

**Result**
1.85
0.414
0.052
2.51
1.14
0.048
2.21
0.146

Consider the following items and state reported Stability in Powder Concentrate (content by LCMSMS) for each.
1. CCCCCc1cc(O)c2c(c1)OC(C)(CCC=C(C)C)C=C2 (stereo not shown) [CBC, cannabichromene]
2. CCCc1cc(O)c2c(c1)OC(C)(C)[C@@H]1CCC(C)=C[C@@H]21 [THCV, delta-9-tetrahydrocannabivarin]

**Result**
0.070
0.705
